Readings of GI50 for the listed molecules
tested on: UACC-257; assay: NCI tumour cell line growth inhibition, 48 h
Activity calls are given as the source filed them. Rule as the data show it: active = GI50 up to about 1.1 µM and inactive = higher.
MEASURED_ATTRIBUTE: GI50

* CC1(C)C2CCC(=O)C1CC2 (stereo not given) | > 100 µM (inactive)
* CC1(C)[C@@H]2CC[C@]1(C)[C@H](OC(=O)/C=C/c1ccccc1)C2 | 23.8 µM (inactive)
* COc1c2cc([N+](=O)[O-])cc1CN(C(=O)C(F)(F)F)CCOCCN(C(=O)C(F)(F)F)C2 | > 100 µM (inactive)
* CSc1c(C#N)c(N)n(-c2ccc(Cl)cc2)c(=O)c1C#N | > 100 µM (inactive)
* O=C1NC(Nc2cccc(Cl)c2)=N/C1=C\c1ccc(Cl)c(Cl)c1 | 8.07 µM (inactive)
